Experiment: method code SF-HPLC, from DOI: 10.1016/s0021-9673(01)84554-4
Details: pH 7.4

{"columns": ["Molecule", "logD"],
 "data": [
  ["CCCCNC(=O)C1(O)C(C)CC2C3CCC4=CC(=O)C=CC4(C)C3(F)C(O)CC21C (centres undefined)", 3.1],
  ["CCOC(CNC(=O)C1(O)C(C)CC2C3CCC4=CC(=O)C=CC4(C)C3(F)C(O)CC21C)OCC (centres undefined)", 2.65],
  ["CC(C)NC(=O)C1(O)C(C)CC2C3CCC4=CC(=O)C=CC4(C)C3(F)C(O)CC21C (centres undefined)", 2.43],
  ["COC(=O)CNC(=O)C1(O)C(C)CC2C3CCC4=CC(=O)C=CC4(C)C3(F)C(O)CC21C (centres undefined)", 1.69],
  ["CC(C)CNC(=O)C1(O)C(C)CC2C3CCC4=CC(=O)C=CC4(C)C3(F)C(O)CC21C (centres undefined)", 3.01],
  ["CC1CC2C3CCC4=CC(=O)C=CC4(C)C3(F)C(O)CC2(C)C1(O)C(=O)NCc1ccccc1 (centres undefined)", 3.28],
  ["CNC(=O)C1(O)C(C)CC2C3CCC4=CC(=O)C=CC4(C)C3(F)C(O)CC21C (centres undefined)", 1.54],
  ["CCCCCNC(=O)C1(O)C(C)CC2C3CCC4=CC(=O)C=CC4(C)C3(F)C(O)CC21C (centres undefined)", 3.64],
  ["CC1CC2C3CCC4=CC(=O)C=CC4(C)C3(F)C(O)CC2(C)C1(O)C(=O)NCCc1ccccc1 (centres undefined)", 3.66],
  ["C[C@@H]1C[C@H]2[C@@H]3CCC4=CC(=O)C=C[C@]4(C)[C@@]3(F)[C@@H](O)C[C@]2(C)[C@@]1(O)C(N)=O", 1.41],
  ["CCNC(=O)C1(O)C(C)CC2C3CCC4=CC(=O)C=CC4(C)C3(F)C(O)CC21C (centres undefined)", 2.07],
  ["C#CCNC(=O)C1(O)C(C)CC2C3CCC4=CC(=O)C=CC4(C)C3(F)C(O)CC21C (centres undefined)", 2],
  ["CCCNC(=O)C1(O)C(C)CC2C3CCC4=CC(=O)C=CC4(C)C3(F)C(O)CC21C (centres undefined)", 2.59],
  ["CC1CC2C3CCC4=CC(=O)C=CC4(C)C3(F)C(O)CC2(C)C1(O)C(=O)NC1CCCCC1 (centres undefined)", 3.54]
]}

====

Assay readout: logP

{"columns": ["Molecule", "Assay readout", "Reported value"],
 "data": [
  ["CC(C)CCCCNC(=O)C1(O)C(C)CC2C3CCC4=CC(=O)C=CC4(C)C3(F)C(O)CC21C (stereo unspecified)", "logP", 3.91],
  ["CC1CC2C3CCC4=CC(=O)C=CC4(C)C3(F)C(O)CC2(C)C1(O)C(=O)NCc1ccc([N+](=O)[O-])cc1 (stereo unspecified)", "logP", 3.37],
  ["COc1ccccc1CNC(=O)C1(O)C(C)CC2C3CCC4=CC(=O)C=CC4(C)C3(F)C(O)CC21C (stereo unspecified)", "logP", 3.09],
  ["COc1ccc(CNC(=O)C2(O)C(C)CC3C4CCC5=CC(=O)C=CC5(C)C4(F)C(O)CC32C)cc1 (stereo unspecified)", "logP", 3.04],
  ["CC1CC2C3CCC4=CC(=O)C=CC4(C)C3(F)C(O)CC2(C)C1(O)C(=O)NCc1ccc(Cl)cc1 (stereo unspecified)", "logP", 3.71],
  ["COc1cccc(CNC(=O)C2(O)CC3C4CCC5=CC(=O)C=CC5(C)C4(F)C(O)CC32C)c1 (stereo unspecified)", "logP", 3.15]
]}
